# Test system: Trichophyton mentagrophytes (T. mentagrophytes) ATCC18748
# method_summary: Antifungal activity test against dermatophytes (MIC)
# Type: cell-based
# condition: 80% growth inhibiting concentration, RPMI1640/MOPS, 28° C., 3 days, WST8
# Procedure: Measurement of the anti-trichophyton activity of the compound of the formula (I) comprised in the patch of the present invention was carried out by the following method. The compound to be evaluated was used by dissolving in dimethyl sulfoxide (DMSO). […] Thereafter, 5 μl of Cell Counting Kit 8 (WST8) was added thereto, and absorbances at 450 nm and 595 nm were measured to use these as background values. […]
readout_type: MIC (T. mentagrophytes)

molecule	MIC (T. mentagrophytes)
Cc1nn(-c2ccccc2O)c(C)c1Cl [compound 13]	A (≤1 μg/ml)
Cc1nn(-c2ccccc2O)c(C)c1C [compound 9]	A (≤1 μg/ml)
Cc1cc(C)n(-c2cccc(O)c2O)n1 [compound 15]	C (16 to 32 μg/ml)
Cc1cc(C)n(-c2ccc(C(F)(F)F)cc2O)n1 [compound 50]	B (2 to 8 μg/ml)
Cc1nn(-c2ccc([N+](=O)[O-])cc2O)c(C)c1C [compound 32]	B (2 to 8 μg/ml)
Cc1ccc(-n2nc(C)cc2C)c(O)c1 [compound 44]	A (≤1 μg/ml)
CNc1ccc(-n2nc(C)cc2C)c(O)c1 [compound 48]	B (2 to 8 μg/ml)
Cc1nn(-c2ccc(O)cc2O)c(C)c1Cl [compound 63]	A (≤1 μg/ml)
CCc1c(C)nn(-c2ccccc2O)c1C [compound 17]	A (≤1 μg/ml)
Cc1nn(-c2ccc(C(N)=O)cc2O)c(C)c1Cl [compound 42]	C (16 to 32 μg/ml)

The molecule listed as Cc1cc(C)n(-c2ccc(F)cc2O)n1 [compound 25] shows MIC (T. mentagrophytes) equal to B (2 to 8 μg/ml)

The molecule listed as CCOC(=O)c1c(C)nn(-c2ccccc2O)c1C [compound 22] shows MIC (T. mentagrophytes) equal to C (16 to 32 μg/ml)
